# credit: paper PMC11653428

biological target: mPGES-1 (Homo sapiens, UniProt O14684); construct: endogenous in cells; host or cells: A549 cells stimulated with IL-1β; microsomal fraction; assay: Cell-free mPGES-1 activity assay (microsomes of IL-1β-stimulated A549 cells, PGE2 formation by RP-HPLC); format: biochemical; conditions: compound at 10 μM; percentage of vehicle control (DMSO) = 100%, n = 3; read-out: Residual activity of mPGES-1, mean ± SD (%)
Sequence (O14684 whole entry): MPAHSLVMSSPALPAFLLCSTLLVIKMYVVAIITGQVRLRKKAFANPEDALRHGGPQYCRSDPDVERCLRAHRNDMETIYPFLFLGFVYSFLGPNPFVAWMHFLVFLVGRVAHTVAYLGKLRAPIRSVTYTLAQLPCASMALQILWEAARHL
Consider the following compounds and their measured remaining activity at 10 µM readings.
// note: answer is a bare numeric in %

* Cc1[nH]c(C(=O)Nc2ccc(Cl)c(CO)c2)cc1C(=O)c1ccc2ccccc2c1 | 21.5
* Cc1ccc(NC(=O)c2cc(C(=O)c3ccc4ccccc4c3)c(C)[nH]2)cc1O | 17.6
* CCc1ccccc1NC(=O)c1cc(C(=O)c2ccc3ccccc3c2)c(C)[nH]1 | 83.4
* COc1ccc(NC(=O)c2cc(C(=O)c3ccc4ccccc4c3)c(C)[nH]2)cc1O | 30.4
* Cc1ccc(NC(=O)c2cc(C(=O)c3ccccc3)c(C)[nH]2)cc1C | 65.5

Continue with the compound presented below.
Problem: Could you share what remaining activity at 10 µM was measured for Cc1[nH]c(C(=O)Nc2cc(Cl)cc(Cl)c2)cc1C(=O)c1ccccc1 , tested on mPGES-1 (Homo sapiens, UniProt O14684)?
Result: 73.4

###

biological target: human recombinant sEH (Homo sapiens); construct: purchased 10011671; assay: Cell-free sEH activity assay (PHOME fluorescence, inhibitor screening kit); format: biochemical; settings: threefold dilutions from 30,000 to 1.52 nM; read-out: IC50 (µM), mean ± SD for sEH
Sequence (P34913 whole entry): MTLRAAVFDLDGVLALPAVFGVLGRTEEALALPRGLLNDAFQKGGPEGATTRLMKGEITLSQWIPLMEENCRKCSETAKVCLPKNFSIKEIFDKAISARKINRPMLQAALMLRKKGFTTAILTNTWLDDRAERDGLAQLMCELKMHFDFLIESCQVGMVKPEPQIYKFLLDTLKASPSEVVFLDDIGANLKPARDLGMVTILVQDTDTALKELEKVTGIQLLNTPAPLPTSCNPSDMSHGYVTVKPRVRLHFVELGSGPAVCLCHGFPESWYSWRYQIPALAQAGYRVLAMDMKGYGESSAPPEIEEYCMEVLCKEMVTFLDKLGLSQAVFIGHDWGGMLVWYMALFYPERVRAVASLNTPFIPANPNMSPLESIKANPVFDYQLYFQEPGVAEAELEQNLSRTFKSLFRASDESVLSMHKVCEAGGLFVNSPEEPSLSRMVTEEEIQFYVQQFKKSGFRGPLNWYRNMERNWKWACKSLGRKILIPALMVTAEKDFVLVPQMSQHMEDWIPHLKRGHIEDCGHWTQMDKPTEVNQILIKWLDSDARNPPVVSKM
IC50 values for the compounds below.
Respond numerically; units are µM and should not be typed.

The examples below pair each entry with its known result.
- Cc1[nH]c(C(=O)Nc2cc(N)cc(C(F)(F)F)c2)cc1C(=O)c1ccccc1: 5
- COc1ccc(NC(=O)c2cc(C(=O)c3ccc4ccccc4c3)c(C)[nH]2)cc1O: 6.3
- Cc1ccc(NC(=O)c2cc(C(=O)c3ccc4ccccc4c3)c(C)[nH]2)cc1O: 1.5

Please turn your attention to the following entry.
Problem: Give its IC50 value. Item: Cc1[nH]c(C(=O)Nc2ccc(Cl)c(CO)c2)cc1C(=O)c1ccc2ccccc2c1
Result: 7.6

###

biological target: human recombinant sEH (Homo sapiens); construct: purchased 10011671; test: Cell-free sEH activity assay (PHOME fluorescence, inhibitor screening kit); format: biochemical; settings: compound at 10 μM; percentage of vehicle control (DMSO) = 100%, n = 3; read-out: Residual activity of sEH, mean ± SD (%)
reported.metric: remaining activity at 10 µM (%)
Please respond with the number in % and leave the unit unwritten.

• Cc1ccc(NC(=O)c2cc(C(=O)c3ccc4ccccc4c3)c(C)[nH]2)cc1O = 21.7
• Cc1[nH]c(C(=O)Nc2ccc(C(C)O)cc2)cc1C(=O)c1ccccc1 (racemic) = 93.4
• Cc1[nH]c(C(=O)Nc2ccc(Cl)c(CO)c2)cc1C(=O)c1ccc2ccccc2c1 = 41.6
• Cc1[nH]c(C(=O)Nc2ccc3ccccc3n2)cc1C(=O)c1ccccc1 = 71.8
• CCc1ccccc1NC(=O)c1cc(C(=O)c2ccc3ccccc3c2)c(C)[nH]1 = 74.3
• Cc1[nH]c(C(=O)Nc2cc(Cl)cc(Cl)c2)cc1C(=O)c1ccccc1 = 86.9
• COc1ccc(NC(=O)c2cc(C(=O)c3ccc4ccccc4c3)c(C)[nH]2)cc1O = 47.2
• Cc1ccc(NC(=O)c2cc(C(=O)c3ccccc3)c(C)[nH]2)cc1C = 47.7

Problem: Report remaining activity at 10 µM for Cc1[nH]c(C(=O)Nc2cc(N)cc(C(F)(F)F)c2)cc1C(=O)c1ccccc1 please.
Result: 36.1

###

test system: HCT-116 cells; experiment: Cell survival index (MTT assay and cell count) in HCT-116 CRC cells; type: cell-based, human; settings: 48 h of incubation; cell survival index; n = 24; read-out: IC50 ± SD (µM) HCT-116
reported.metric: IC50 (µM)
Please respond with the number in µM and leave the unit unwritten.

Problem: Would you mind telling me what IC50 value was observed for N.N.[Cl][Pt][Cl] [Cisplatin, reference compound] ?
Result: 9

###

test system: HCT-116 cells; experiment: Cell survival index (MTT assay and cell count) in HCT-116 CRC cells; format: cell-based, human; settings: Homo sapiens, HCT-116; 48 h of incubation; cell survival index; n = 24; read-out: IC50 ± SD (µM) HCT-116
# IC50 per record follows

- Cc1[nH]c(C(=O)Nc2cc(N)cc(C(F)(F)F)c2)cc1C(=O)c1ccccc1: 25 µM
- Cc1[nH]c(C(=O)Nc2ccc(Cl)c(CO)c2)cc1C(=O)c1ccc2ccccc2c1: 39 µM
- Cc1ccc(NC(=O)c2cc(C(=O)c3ccc4ccccc4c3)c(C)[nH]2)cc1O: 42 µM

Problem: GET /values?readout=IC50&item= COc1ccc(NC(=O)c2cc(C(=O)c3ccc4ccccc4c3)c(C)[nH]2)cc1O
Result: 44 µM
